MEASUREMENT_TARGET: SUMO-activating enzyme (Homo sapiens)
Sequence (Q9UBE0 whole entry): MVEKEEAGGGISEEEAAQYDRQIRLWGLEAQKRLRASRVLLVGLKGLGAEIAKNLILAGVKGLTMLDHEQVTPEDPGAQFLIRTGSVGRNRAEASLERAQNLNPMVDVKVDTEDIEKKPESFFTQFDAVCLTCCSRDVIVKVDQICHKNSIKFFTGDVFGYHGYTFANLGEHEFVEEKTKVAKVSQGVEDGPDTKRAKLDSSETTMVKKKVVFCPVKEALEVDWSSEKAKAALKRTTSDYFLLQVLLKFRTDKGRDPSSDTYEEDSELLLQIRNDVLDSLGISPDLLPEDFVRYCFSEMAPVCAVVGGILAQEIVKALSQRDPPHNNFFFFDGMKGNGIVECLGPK
Sequence (Q9UBT2 whole entry): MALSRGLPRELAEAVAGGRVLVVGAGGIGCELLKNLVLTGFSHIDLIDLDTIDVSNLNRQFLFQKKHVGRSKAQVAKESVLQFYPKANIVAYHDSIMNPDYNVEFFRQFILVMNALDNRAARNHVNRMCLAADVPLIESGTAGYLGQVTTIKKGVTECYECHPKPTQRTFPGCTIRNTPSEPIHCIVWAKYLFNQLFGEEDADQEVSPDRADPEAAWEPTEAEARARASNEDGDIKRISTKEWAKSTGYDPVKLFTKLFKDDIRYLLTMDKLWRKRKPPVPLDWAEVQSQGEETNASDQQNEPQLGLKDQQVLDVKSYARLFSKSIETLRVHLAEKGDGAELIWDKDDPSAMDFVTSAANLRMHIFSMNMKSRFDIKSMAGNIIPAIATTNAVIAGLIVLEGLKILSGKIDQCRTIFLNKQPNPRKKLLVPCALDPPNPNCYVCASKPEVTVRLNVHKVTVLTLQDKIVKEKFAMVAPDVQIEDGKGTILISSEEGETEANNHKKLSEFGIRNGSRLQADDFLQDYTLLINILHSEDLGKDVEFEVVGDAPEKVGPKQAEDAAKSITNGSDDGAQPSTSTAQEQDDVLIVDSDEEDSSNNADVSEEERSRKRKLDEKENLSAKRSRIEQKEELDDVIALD
MEASUREMENT_NOTES: blockers of UBC9-mediated SUMO conjugation – biochemical, AlphaScreen, SUMOylation inhibitor project, confirmation (AID 2018)
Type: functional
Calls of active or inactive are those of the source.
Outcomes: T = active, F = inactive

1) O=C(Nc1cccc2nsnc12)c1ccc(-c2cccc(Cl)c2)o1 ... T
2) O=C1NC(=O)C(=Cc2c[nH]c3ccc(OCc4ccccc4)cc23)C(=O)N1 ... T
3) O=[N+]([O-])c1ccccc1/C=C/C=N/n1c(S)nnc1-c1cc(-c2ccccc2)[nH]n1 ... T
4) O=C(Nc1ccccc1O)c1cc(S(=O)(=O)N2CCOCC2)c(Cl)cc1Cl ... F

====

MEASUREMENT_TARGET: Ubiquitin-conjugating enzyme E2 N (Homo sapiens);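 note: Dose-response confirmation in a TR-FRET assay detecting UBC13-driven polyubiquitin chain formation, inhibition measured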
Sequence (P61088 whole entry): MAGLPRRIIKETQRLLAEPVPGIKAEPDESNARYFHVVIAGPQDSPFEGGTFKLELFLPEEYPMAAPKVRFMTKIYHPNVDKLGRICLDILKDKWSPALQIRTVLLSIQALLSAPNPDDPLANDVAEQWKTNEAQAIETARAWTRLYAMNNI
Format: functional
Activity calls are given as the source filed them.
Labels: Y (active), N (inactive)

1) COc1ccccc1[C@@H]1C(c2cccc(C)c2)=NN(c2ccccc2)[C@H]1C(=O)N1CCOC1=O ... N
2) COc1ccc(CN2C(=O)c3cccc4cccc2c34)cc1F ... N
3) COCCN=C(S)N=Nc1c(O)[nH]c2ccc([N+](=O)[O-])cc12 ... Y
4) Cn1c(=O)c2c(ncn2Cc2ccc(Cl)cc2)n(C)c1=O ... N
5) O=C1c2cccc3cccc(c23)C(=O)N1CCc1ccccc1 ... N
6) O=C(Nc1cccc(F)c1)c1cc(S(=O)(=O)NCCC2=CCCCC2)ccc1F ... N
7) CCN1C(=O)c2cccc3c(NC(=O)c4ccc(S(=O)(=O)N(C)C)cc4)ccc1c23 ... N
8) CCCCn1c(=O)c(C(=O)Nc2ccccc2S(N)(=O)=O)c(O)c2ccccc21 ... Y

====

Measured Ki by item
MEASUREMENT_TARGET: fMet-Leu-Phe receptor (Homo sapiens)
Sequence (P21462 whole entry): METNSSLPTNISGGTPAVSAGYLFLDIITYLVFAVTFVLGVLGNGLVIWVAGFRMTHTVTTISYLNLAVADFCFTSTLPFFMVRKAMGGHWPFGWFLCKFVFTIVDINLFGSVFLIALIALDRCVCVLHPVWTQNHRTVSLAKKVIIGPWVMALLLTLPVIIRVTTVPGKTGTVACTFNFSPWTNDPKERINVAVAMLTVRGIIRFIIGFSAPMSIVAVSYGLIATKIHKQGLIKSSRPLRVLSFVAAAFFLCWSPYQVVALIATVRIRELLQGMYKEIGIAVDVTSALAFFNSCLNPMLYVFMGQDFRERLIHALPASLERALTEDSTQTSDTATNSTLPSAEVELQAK
MEASUREMENT_NOTES: formyl peptide receptor binders – dose response (AID 519)
Assay type: functional
Calls of active or inactive are those of the source.
OUTCOME_MEASURE: Ki

1) CCCCn1c(NC(C)=O)c(C#N)c2nc3ccccc3nc21 ... 45.7 µM (inactive)
2) Fc1ccc(-c2nnc3ccc(N4CCCC4)nn23)cc1 ... > 66.7 µM (inactive)
3) COc1ccccc1-n1c(CNC(=O)c2ccco2)nnc1SCC(=O)Nc1ccc(F)cc1 ... 63.3 µM (inactive)
4) Cc1cc2oc(C(=O)NC3CCS(=O)(=O)C3)c(C)c2cc1C (stereo not given) ... > 66.7 µM (inactive)
5) CCOc1ccc(C(=O)C2=C(O)C(=O)N(c3nc(C)c(C)s3)C2c2ccco2)cc1 (stereo not given) ... 57.7 µM (inactive)

====

MEASUREMENT_TARGET: UniProt:P11712
Sequence (P11712 whole entry): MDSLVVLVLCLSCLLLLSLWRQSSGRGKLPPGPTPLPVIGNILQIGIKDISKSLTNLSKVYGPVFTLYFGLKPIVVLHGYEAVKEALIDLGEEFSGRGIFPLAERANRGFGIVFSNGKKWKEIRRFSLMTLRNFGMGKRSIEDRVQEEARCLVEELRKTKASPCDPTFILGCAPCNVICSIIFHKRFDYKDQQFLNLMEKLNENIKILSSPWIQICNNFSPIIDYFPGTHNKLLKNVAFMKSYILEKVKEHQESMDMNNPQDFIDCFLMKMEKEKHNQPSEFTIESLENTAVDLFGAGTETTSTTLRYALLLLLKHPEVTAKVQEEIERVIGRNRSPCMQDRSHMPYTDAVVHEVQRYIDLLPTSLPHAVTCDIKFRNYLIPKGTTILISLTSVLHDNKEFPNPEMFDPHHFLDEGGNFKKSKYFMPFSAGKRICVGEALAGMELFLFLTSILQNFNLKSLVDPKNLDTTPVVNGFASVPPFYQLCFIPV
OUTCOME_MEASURE: AC50

1) CCNCc1cc(OCC)c(OCC(=O)NCCc2ccccc2)cc1Cl ... 20 µM (inconclusive)
2) CN(C)c1ncc2nc(-c3ccc(F)cc3)c(=O)n(C3CC3)c2n1 ... 0.251 µM (inconclusive)
3) C[C@]12CC[C@H]3c4ccc(OC[C@H]5CO5)cc4CC[C@H]3[C@H]1CC[C@@H]2O ... 3.16 µM (inconclusive)
4) CC(=O)Nc1cccc(NC(=O)C2CCCN2C(=O)Nc2ccccc2C)c1 (stereo not drawn) ... 20 µM (inconclusive)
5) O=[N+]([O-])c1ccc([C@@H](Nc2ccccc2)c2ccc3cccnc3c2O)cc1 ... 6.31 µM (inconclusive)
6) COc1ccc(-c2csc3c2[N+]2=CCC=C2C3[O-])cc1 (stereo not drawn) ... 6.31 µM (inconclusive)
7) Cc1nnc(C)n1/N=C/c1ccc(-c2ccccc2)cc1 ... 12.6 µM (inconclusive)
8) COc1cccc(Cn2c(=O)cnc3cnc(N4CCN(C)CC4)nc32)c1 ... 25.1 µM (inconclusive)
9) FC(F)(F)c1nc2ccc(SSc3ccc4nc(C(F)(F)F)[nH]c4c3)cc2[nH]1 ... 7.94 µM (inconclusive)
10) Cc1cc2nc(C3CCCN(C(=O)NCc4ccccc4)C3)[nH]c2cc1C (stereo not drawn) ... 22.4 µM (inconclusive)
11) CC(=O)c1cccc(NC(=O)CSCc2ccccc2)c1 ... 7.94 µM (inconclusive)
12) COc1cc2c(C(=O)N3CCN(C)CC3)c(C)n(-c3ccccc3)c2cc1Br ... 22.4 µM (inconclusive)
13) CC1CC(C)CN(C/C=C/c2ccccc2[N+](=O)[O-])C1 (stereo not drawn) ... 1.58 µM (inconclusive)
14) O=C(N/C(=C/c1cccs1)c1nc2ccccc2[nH]1)c1ccccc1 ... 7.94 µM (inconclusive)
15) COc1ccc2c(c1)C(=O)N(Cc1ccco1)C(=O)/C2=C\Nc1c(C)n(C)n(-c2ccccc2)c1=O ... 7.94 µM (inconclusive)
16) CCc1sc(-c2c(C#N)c(N)nc3c2CCCCCC3)cc1[N+](=O)[O-] ... 2.82 µM (inconclusive)
17) COc1ccc(OC)c(NC(=O)c2cc3n(n2)C(C(F)(F)F)CC(c2ccc4c(c2)OCO4)N3)c1 (stereo not drawn) ... 0.794 µM (inconclusive)
18) Cn1c(=O)c(-c2cccs2)nc2cncnc21 ... 39.8 µM (inconclusive)

====

MEASUREMENT_TARGET: Caspase-3 (Homo sapiens, UniProt P42574);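 note: Dose-response selectivity test against caspase-3 for candidate inhibitors of sentrin-specific proteases (SENPs)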
Type: functional
The source made the active and inactive calls.
Outcome codes: active, inactive

1) O=C(Nc1cccc(F)c1)c1ccc(-c2ccccc2Cl)o1 ... active
2) Cc1cc(O)c(-c2cc(C(=O)Nc3cccnc3)[nH]n2)cc1C ... active
3) CC(=O)NC1=C(N(C)C2CCS(=O)(=O)C2)C(=O)c2ccccc2C1=O (stereo unspecified) ... active
4) Cc1ccnc2ccc(-c3nc4ccccc4o3)cc12 ... active
5) COc1ccc(-c2nnc(SCc3ccccc3F)o2)cc1 ... active
6) c1ccc(Nc2nnc(-c3cccc4ccccc34)o2)cc1 ... inactive

====

MEASUREMENT_TARGET: Leucine aminopeptidase (Plasmodium falciparum 3D7)
Sequence (Q8IL11 whole entry): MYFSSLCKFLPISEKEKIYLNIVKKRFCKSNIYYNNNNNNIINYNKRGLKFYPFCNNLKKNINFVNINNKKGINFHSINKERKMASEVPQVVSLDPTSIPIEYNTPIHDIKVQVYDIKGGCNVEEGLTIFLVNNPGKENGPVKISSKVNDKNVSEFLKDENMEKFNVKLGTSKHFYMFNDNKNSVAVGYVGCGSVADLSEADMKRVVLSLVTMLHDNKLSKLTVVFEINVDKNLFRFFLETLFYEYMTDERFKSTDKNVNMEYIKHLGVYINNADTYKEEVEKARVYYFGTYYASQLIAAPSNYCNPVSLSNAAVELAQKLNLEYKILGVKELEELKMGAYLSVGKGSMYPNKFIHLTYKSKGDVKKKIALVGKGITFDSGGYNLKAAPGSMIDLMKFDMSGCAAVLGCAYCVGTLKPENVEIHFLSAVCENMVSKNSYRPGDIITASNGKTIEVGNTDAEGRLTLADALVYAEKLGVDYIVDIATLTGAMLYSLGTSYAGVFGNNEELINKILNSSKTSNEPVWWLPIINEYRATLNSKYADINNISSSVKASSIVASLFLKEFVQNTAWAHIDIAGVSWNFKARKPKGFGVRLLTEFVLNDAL
MEASUREMENT_NOTES: P. falciparum M17LAP inhibitors, primary screen, biochemical, fluorogenic H-Leu-NHMec substrate, 1536-well (AID 1619)
Assay type: functional
Calls of active or inactive are those of the source.
In this section we review reported IC50 values for a set of compounds.
OUTCOME_MEASURE: IC50

1. CCC1CCc2c(sc(NC(=O)C3CC=CCC3C(=O)O)c2C#N)C1 (stereo not drawn) ... < 1 µM (active)
2. CCSc1nnc(-c2ccccc2/N=C/c2c(C)nn(-c3ccccc3)c2O)c(O)n1 ... 39.6 µM (active)
3. Cc1ccc(Nc2nnc(SC3CCOC3=O)s2)cc1 (stereo not drawn) ... 1.94 µM (active)
4. CCOc1ccc(Nc2nc(Cc3nnc(SCC(=O)O)o3)cs2)cc1 ... 7.08 µM (active)
5. CCc1ccc(C(=O)CSc2n[nH]c(C)n2)cc1 ... 63.4 µM (active)
6. Cc1sc(NC(=O)C2CC=CCC2C(=O)O)c(C(=O)OC(C)C)c1C (stereo not drawn) ... 24.1 µM (active)
7. OC1(c2cn(Cc3ccccc3)nn2)CCCCC1 ... 61.5 µM (active)
8. Cc1c(O)c([S+]([O-])c2ccccc2)c(=O)n(-c2ccccc2)c1-c1ccccc1 (stereo not drawn) ... 15.1 µM (active)

====

MEASUREMENT_NOTES: reduction of Shn3 3'UTR-driven luciferase in osteoblasts – cell-based, Clone20 osteoblasts, firefly luciferase, cherry-picked, dose response (AID 624132);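 note: firefly luciferase luminescence from reporter carrying the Shn3 3'UTR in osteoblasts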
Format: functional
The source made the active and inactive calls.
OUTCOME_MEASURE: AC50

1) CCCN1C(=O)S/C(=C\c2ccc(N3CCOCC3)o2)C1=O ... 6.37 µM (active)
2) C[C@H](O)C#Cc1ccc2c(c1)O[C@@H](CN(C)Cc1ccc(-c3ccccc3)cc1)[C@H](C)CN([C@@H](C)CO)S2(=O)=O ... 10.3 µM (active)
3) O=C(CSc1nnc(-c2cccnc2)s1)Nc1ccnc2ccccc12 ... 0.661 µM (active)
4) CC(C)CCNC(=O)c1cc2c(O)nc3ccccc3c2s1 ... 41.5 µM (active)
5) CCC(=O)c1ccc(OCc2ccc(C(=O)c3ccccc3)cc2)cc1 ... 3.29 µM (active)
6) O=C(CSc1nc(-c2ccco2)cc(C(F)(F)F)n1)Nc1ccc(C(=O)N2CCCCC2)cc1 ... 2.87 µM (active)
